Target: D(2) dopamine receptor (Homo sapiens)
Assay: Dopamine D2 receptor (DRD2) small molecule antagonists, cell-based qHTS assay (AID 1963595)
Settings: HEK293-DRD2 cAMP HTRF antagonist mode; series mostly up to 92.4 µM
Records with an inconclusive call do not appear. Active and inactive are the calls of the source. Calls follow the shape of the dose curve; as a rule, active = well fitted inhibition curve with a large enough effect in the signal ratio in the repeat runs, with a control signal flat; inconclusive = weak or mixed curves, or effect the other way; inactive = flat fitted curve, though single readings scatter; the % refers to the signal ratio.
measurement-label: outcome

[
  {
    "mol-smiles": "COc1cc(OC)c2ccc(=O)oc2c1",
    "measurement-label": "outcome",
    "reported-result": "inactive"
  },
  {
    "mol-smiles": "S=c1nccc[nH]1",
    "measurement-label": "outcome",
    "reported-result": "inactive"
  },
  {
    "mol-smiles": "O=C(O)c1ccc2cc(C(=O)O)ccc2c1",
    "measurement-label": "outcome",
    "reported-result": "inactive"
  }
]
